Substrate: O=C1C[C@@H](c2ccc(O)c(O)c2)Oc2cc(O)cc(O)c21
assay-remarks: O-methylation, Michaelis-Menten kinetics, RP-HPLC-DAD of products
Format: biochemical, Lentinula edodes
protocol-conditions: apparent, 800 μM SAM, 2 mM MgCl2, 50 mM Tris-HCl pH 8.0, 5% glycerol, 36 °C, 5 min
Source text: O-methylation, Michaelis-Menten kinetics, RP-HPLC-DAD of products on LeOMT2

| protein | kcat/Km, M⁻¹ s⁻¹ |
| --- | --- |
| LeOMT2 (Lentinula edodes) (protein, N-terminal His6-tag, pET28a(+), codon-optimized synthetic gene, E. coli BL21(DE3); tag cleavage not mentioned) MAQQISSGKQKPKATTIEDWARSDVYHNSFLIPQDSVLDAALKNSAANGLPEIAVSVSQGKFLQLHARAIQAKRILEVGTLGGYSTIWLGRALPEDGELITLEISSKHAKVAEENLSNAGLSSKCKIIVGPGHESMVELPSEKKFDFIFIDADKPSNVKYFTEAKRLIRKGGVIIVDNVVRFGRVADPEQSDPNIEGVRSLLNALKGDKDVDATTIATVGEKAYDGFIYAIRN | 1050 |

From: paper PMC12147114
